- target_or_test_system: GLP-1R (Homo sapiens, UniProt P43220)
- Sequence (P43220 24-463): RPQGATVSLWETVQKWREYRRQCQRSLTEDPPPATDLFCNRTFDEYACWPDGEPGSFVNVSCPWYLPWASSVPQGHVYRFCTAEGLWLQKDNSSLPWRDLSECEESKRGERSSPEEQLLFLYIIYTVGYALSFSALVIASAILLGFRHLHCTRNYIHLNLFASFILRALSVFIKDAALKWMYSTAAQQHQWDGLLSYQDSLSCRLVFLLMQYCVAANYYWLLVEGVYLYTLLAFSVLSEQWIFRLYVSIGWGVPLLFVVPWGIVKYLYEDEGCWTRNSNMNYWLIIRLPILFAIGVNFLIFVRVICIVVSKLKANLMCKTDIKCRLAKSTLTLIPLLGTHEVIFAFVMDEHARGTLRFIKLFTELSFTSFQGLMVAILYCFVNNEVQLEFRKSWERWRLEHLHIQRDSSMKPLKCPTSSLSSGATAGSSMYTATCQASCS
- assay_summary: GLP-1R agonist cAMP stimulation assay (HTRF cAMP)
- test_settings: HEK293 cell line expressing GLP-1 target; HTRF cAMP agonist mode, 30 min at RT
pEC50: −log10 of the molar value.

- compound: "COCCn1c(Cc2ccc(-c3cccc(OCc4ccc(C#N)cc4F)n3)cc2)nc2cc(C(=O)NCCc3ccc(O)cc3)ccc21"
  target_or_test_system: "GLP-1R (Homo sapiens, UniProt P43220)"
  pEC50: 5.38
- compound: "Cc1cc(NC(=O)c2ccc3c(c2)nc(CN2CCC(c4cccc(OCc5ccc(Cl)cc5F)n4)CC2)n3C[C@@H]2CCO2)c(C)c2c(C)n[nH]c12"
  target_or_test_system: "GLP-1R (Homo sapiens, UniProt P43220)"
  pEC50: 7.81
- compound: "N#Cc1ccc(COc2cccc(C3=CCN(Cc4nc5cc(C(=O)Nc6cc(F)c7c(c6)C6(CC6)C(=O)N7)ccc5n4C[C@@H]4CCO4)CC3)n2)c(F)c1"
  target_or_test_system: "GLP-1R (Homo sapiens, UniProt P43220)"
  pEC50: 9.12
- compound: "Cc1n[nH]c2c(Cl)cc(C(=O)Nc3ccc4c(c3)nc(CN3CCC(c5cccc6c5OC(C)(c5ccc(Cl)cc5F)O6)CC3)n4CC3CCO3)cc12 (stereo not drawn)"
  target_or_test_system: "GLP-1R (Homo sapiens, UniProt P43220)"
  pEC50: 8.99
- compound: "C[C@H](NC(=O)c1ccc2c(c1)nc(CN1CCC(c3cccc(OCc4ccc(Cl)cc4F)n3)CC1)n2C[C@@H]1CCO1)C(=O)N1C[C@H](O)C[C@H]1C(=O)O"
  target_or_test_system: "GLP-1R (Homo sapiens, UniProt P43220)"
  pEC50: 8.85
- compound: "CCn1cncc1Cn1c(Cc2c(F)cc(-c3cccc4c3O[C@@](C)(c3ccc(Cl)cn3)O4)cc2F)nc2cc(NC(=O)c3cc(F)c4[nH]nc(C)c4c3)ccc21"
  target_or_test_system: "GLP-1R (Homo sapiens, UniProt P43220)"
  pEC50: 9.48
- compound: "CC(=O)c1n[nH]c2ccc(C(=O)Nc3ccc4c(c3)nc(CN3CC=C(c5cccc(OCc6ccc(Cl)cc6F)n5)CC3)n4C[C@@H]3CCO3)cc12"
  target_or_test_system: "GLP-1R (Homo sapiens, UniProt P43220)"
  pEC50: 7.99
- compound: "O=C(Nc1cc(F)c2c(c1)C1(CC1)C(=O)N2)c1ccc2c(c1)nc(CN1CC=C(c3cccc(OCc4ccc(Cl)cc4F)n3)CC1)n2C[C@@H]1CCO1"
  target_or_test_system: "GLP-1R (Homo sapiens, UniProt P43220)"
  pEC50: 9.35
- compound: "O=C(Nc1ccc2ncsc2c1)c1ccc2c(c1)nc(CN1CC=C(c3cccc(OCc4ccc(Cl)cc4F)n3)CC1)n2C[C@@H]1CCO1"
  target_or_test_system: "GLP-1R (Homo sapiens, UniProt P43220)"
  pEC50: 8.24
- compound: "Cc1n[nH]c2c(C3CC3)cc(NC(=O)c3ccc4c(c3)nc(CN3CC=C(c5cccc(OCc6ccc(Cl)cc6F)n5)CC3)n4C[C@@H]3CCO3)cc12"
  target_or_test_system: "GLP-1R (Homo sapiens, UniProt P43220)"
  pEC50: 8.02
- compound: "CC1(c2ccc(Cl)cc2F)Oc2cccc(C3=CCN(Cc4nc5cc(NC(=O)c6cc(F)c7c(c6)C6(CC6)C(=O)N7)ccc5n4C[C@@H]4CCO4)CC3)c2O1 (stereo partly drawn)"
  target_or_test_system: "GLP-1R (Homo sapiens, UniProt P43220)"
  pEC50: 9.20
- compound: "O=C(Nc1ccc2[nH]c(=O)[nH]c2c1)c1ccc2c(c1)nc(CN1CCC(c3cccc(OCc4ccc(Cl)cc4F)n3)CC1)n2C[C@@H]1CCO1"
  target_or_test_system: "GLP-1R (Homo sapiens, UniProt P43220)"
  pEC50: 8.80
